Molecular target: Vitamin D3 receptor (Homo sapiens, UniProt P11473)
Sequence (P11473 whole entry, the tested form may be a part): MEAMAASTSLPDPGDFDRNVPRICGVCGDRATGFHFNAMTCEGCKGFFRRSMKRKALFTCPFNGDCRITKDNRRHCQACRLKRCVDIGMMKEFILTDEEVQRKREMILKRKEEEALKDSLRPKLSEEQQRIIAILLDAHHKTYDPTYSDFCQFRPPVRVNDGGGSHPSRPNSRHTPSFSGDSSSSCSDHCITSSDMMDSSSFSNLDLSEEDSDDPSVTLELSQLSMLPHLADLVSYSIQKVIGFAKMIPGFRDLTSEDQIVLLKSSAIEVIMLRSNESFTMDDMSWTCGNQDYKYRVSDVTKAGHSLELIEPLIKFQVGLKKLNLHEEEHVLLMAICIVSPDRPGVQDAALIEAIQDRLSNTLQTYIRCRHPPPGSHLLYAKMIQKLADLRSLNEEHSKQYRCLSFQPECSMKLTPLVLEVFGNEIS
Assay: Agonist activity at human VDR expressed in HEK293 cells co-expressing CMX-GAL4N and TK-MH100x4-LUC assessed as induction of transcriptional activity by beta-galactosidase reporter gene assay
Assay type: cell-based
Conditions: read-out: EC50
MEASUREMENT_KIND: EC50 (µM)

{"COMPOUND_SMILES": "CCCCCCOC(C)(C)[C@H](O)COc1ccc(C(CC)(CC)c2ccc(OC[C@@H](O)CO)c(C)c2)cc1C", "MEASUREMENT_KIND": "EC50", "RESULT_UNITS": "µM", "BOUND_SIGN": ">", "RECORDED_NUMBER": 10}
{"COMPOUND_SMILES": "CCC(CC)(c1ccc(OC[C@@H](O)CO)c(C)c1)c1ccc(OC[C@@H](O)C(C)(C)OCCCCCCCCO)c(C)c1", "MEASUREMENT_KIND": "EC50", "RESULT_UNITS": "µM", "BOUND_SIGN": ">", "RECORDED_NUMBER": 3}
{"COMPOUND_SMILES": "CCC(CC)(c1ccc(OC[C@@H](O)CO)c(C)c1)c1ccc(OC[C@H](O)C(C)(C)OCCCCCCCCO)c(C)c1", "MEASUREMENT_KIND": "EC50", "RESULT_UNITS": "µM", "BOUND_SIGN": "=", "RECORDED_NUMBER": 1.2}
{"COMPOUND_SMILES": "CCCCCCOC(C)(C)[C@@H](O)COc1ccc(C(CC)(CC)c2ccc(OC[C@@H](O)CO)c(C)c2)cc1C", "MEASUREMENT_KIND": "EC50", "RESULT_UNITS": "µM", "BOUND_SIGN": "=", "RECORDED_NUMBER": 1.5}
